# Test Context: 298.15 K; 101.3 kPa; Liquid
Numbers after ± are expanded uncertainties.

>  <Molecule>
CCOC(=O)CCC(=O)OCC [diethyl butanedioate]

>  <mass density>
1035.5 ± 0.1 kg/m3

$$$$
>  <Molecule>
CC(O)CO (centres undefined) [1,2-propanediol]

>  <mass density>
1031.6 ± 0.1 kg/m3

$$$$
>  <Molecule>
O=C1CCCO1 [γ-butyrolactone]

>  <mass density>
1124.5 ± 0.2 kg/m3

$$$$
>  <Molecule>
CC1COC(=O)O1 (centres undefined) [4-methyl-1,3-dioxolan-2-one]

>  <mass density>
1199.4 ± 0.2 kg/m3

$$$$
